The reported numbers originate from the supplement of paper PMC7877785.

- assay-procedure: self-splicing fitness, log relative to wild type (ln ratio); higher = more splicing; Tetrahymena group I intron in knt gene, E. coli kanamycin selection, DiMSum; sequences stand for … in CUCUCU…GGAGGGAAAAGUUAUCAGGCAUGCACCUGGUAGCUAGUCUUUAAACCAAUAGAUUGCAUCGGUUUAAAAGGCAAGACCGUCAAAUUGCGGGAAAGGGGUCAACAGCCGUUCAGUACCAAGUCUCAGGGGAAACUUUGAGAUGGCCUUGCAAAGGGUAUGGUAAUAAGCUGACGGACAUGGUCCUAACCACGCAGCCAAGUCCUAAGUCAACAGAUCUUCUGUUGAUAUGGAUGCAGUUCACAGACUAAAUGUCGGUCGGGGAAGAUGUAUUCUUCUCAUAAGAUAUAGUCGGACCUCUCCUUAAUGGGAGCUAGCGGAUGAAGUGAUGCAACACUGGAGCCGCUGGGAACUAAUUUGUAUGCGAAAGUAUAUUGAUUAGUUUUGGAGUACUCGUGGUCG;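 note: selection with 25 µg/mL kanamycin versus none on LB agar overnight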
- recorded-conditions: 37 °C
property: self-splicing fitness (ln)

> print(dat)
        primary.sequence  reported
 1  GUCCAGCAAUAUUACGUACA    -0.367
 2  AAAGAGCAAUAUUACGAAAA     -0.77
 3  CUACAGCAAUAUUACGGCUG     -2.57
 4  AGGCAGCAAUAUUACGACCA     0.544
 5  AUAUAGCAAUAUUACGCCAU     -1.38
 6  ACUUAGCAAUAUUACGUUCG    -0.802
 7  CAUGAGCAAUAUUACGACCU    -0.931
 8  AUCGAGCAAUAUUACGUUUC     -2.81
 9  GAGAAGCAAUAUUACGCGCU     -1.49
10  AUGAAGCAAUAUUACGUAAU     -0.42
11  UUAGAGCAAUAUUACGUGCG     -0.87
12  UGGGAGCAAUAUUACGGACU     -2.35
13  UACAAGCAAUAUUACGGGCG    -0.308
14  CCGCAGCAAUAUUACGCGAG      -2.2
15  UCAGAGCAAUAUUACGGAGC     -1.44
16  GAACAGCAAUAUUACGUACC    0.0452
